System: Brain
Assay: Biodistribution in brain of B16F0 tumor bearing C57BL/6J mouse at 0.37-0.74 MBq, iv after 6 hrs
Format: ADME, organism-based
Conditions: in vivo
Would you kindly list Drug uptake for each of these molecules?
// return numeric value only (unit: % ID/g, not printed)

Which Drug uptake is reported for this molecule? `COc1cc(NC(C)=O)c([123I])cc1C(=O)NCCCCN(C)C(C)C`
0.03

Reported Drug uptake, molecule COc1cc(NC(C)=O)c([123I])cc1C(=O)NCCCCN1CC2CCC1C2 (stereo not drawn) : ____
0.03

Recorded Drug uptake for `CCCCN(C)CCCCNC(=O)c1cc([123I])c(NC(C)=O)cc1OC` , please?
0.03
